- tgt: recombinant human κ-opioid receptor (Homo sapiens)
- Sequence (P41145 whole entry): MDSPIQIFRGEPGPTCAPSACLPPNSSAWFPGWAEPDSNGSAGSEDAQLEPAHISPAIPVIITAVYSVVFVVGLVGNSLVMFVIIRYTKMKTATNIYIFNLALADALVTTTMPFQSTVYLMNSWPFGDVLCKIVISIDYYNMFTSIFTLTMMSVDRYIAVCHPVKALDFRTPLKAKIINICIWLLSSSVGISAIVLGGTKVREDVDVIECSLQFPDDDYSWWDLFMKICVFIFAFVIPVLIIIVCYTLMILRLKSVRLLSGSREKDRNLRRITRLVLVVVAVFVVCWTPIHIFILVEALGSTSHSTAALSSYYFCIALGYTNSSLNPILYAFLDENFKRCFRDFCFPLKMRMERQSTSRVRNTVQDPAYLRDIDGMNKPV
- experimental_details: radioligand displacement, [3H]-U-69, […]
quantity_kind: Ki (nM)
Field: numeric (nM). Do not append units.

Query (compound): CC(C)(NC(=O)C1=C(O)[C@@H]2Oc3c(O)ccc4c3[C@@]23CCN(CC2CC2)[C@H](C4)[C@]3(O)C1)c1nc(-c2ccccc2)no1 ; field requested: Ki
0.94

---

- tgt: rat recombinant μ-opioid receptor (Rattus norvegicus, UniProt P33535)
- Sequence (P33535 whole entry): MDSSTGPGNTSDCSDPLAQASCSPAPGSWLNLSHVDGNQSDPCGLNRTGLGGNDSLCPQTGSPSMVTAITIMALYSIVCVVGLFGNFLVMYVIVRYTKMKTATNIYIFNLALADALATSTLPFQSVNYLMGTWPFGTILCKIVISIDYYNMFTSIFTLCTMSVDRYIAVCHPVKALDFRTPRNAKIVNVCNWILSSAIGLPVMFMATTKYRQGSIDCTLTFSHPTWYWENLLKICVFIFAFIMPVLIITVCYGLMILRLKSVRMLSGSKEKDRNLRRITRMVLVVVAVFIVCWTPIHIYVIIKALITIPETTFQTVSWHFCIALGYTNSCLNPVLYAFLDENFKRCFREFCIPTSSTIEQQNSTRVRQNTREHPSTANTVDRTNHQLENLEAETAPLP
- experimental_details: radioligand displacement, [3H]-DAMGO
- Type: binding
quantity_kind: Ki
Form entry: enter the amount, then its unit.

Query (compound): CC(C)(NC(=O)C1=C(O)[C@@H]2Oc3c(O)ccc4c3[C@@]23CCN(CC2CC2)[C@H](C4)[C@]3(O)C1)c1nc(-c2ccccc2)no1 ; field requested: Ki
1.4 nM

---

- tgt: recombinant human μ-opioid receptor (Homo sapiens, UniProt P35372)
- Sequence (P35372 whole entry): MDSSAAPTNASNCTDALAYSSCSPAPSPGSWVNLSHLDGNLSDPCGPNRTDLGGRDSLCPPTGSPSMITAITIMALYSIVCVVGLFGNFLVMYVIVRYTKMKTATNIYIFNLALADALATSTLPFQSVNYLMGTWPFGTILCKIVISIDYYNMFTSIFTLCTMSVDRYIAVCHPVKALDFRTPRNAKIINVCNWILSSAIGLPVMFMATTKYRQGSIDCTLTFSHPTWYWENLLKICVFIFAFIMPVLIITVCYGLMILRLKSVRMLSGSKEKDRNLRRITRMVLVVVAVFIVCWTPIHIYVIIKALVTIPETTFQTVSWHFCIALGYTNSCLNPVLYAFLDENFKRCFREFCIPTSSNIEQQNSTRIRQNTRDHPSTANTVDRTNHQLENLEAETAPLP
- experimental_details: […]-GTPγS binding functional assay
quantity_kind: EC50

Query (molecule): CC(C)(NC(=O)C1=C(O)[C@@H]2Oc3c(O)ccc4c3[C@@]23CCN(CC2CC2)[C@H](C4)[C@]3(O)C1)c1nc(-c2ccccc2)no1 ; field requested: EC50
> 10 µM

---

- tgt: recombinant human δ-opioid receptor (Homo sapiens, UniProt P41143)
- Sequence (P41143 whole entry): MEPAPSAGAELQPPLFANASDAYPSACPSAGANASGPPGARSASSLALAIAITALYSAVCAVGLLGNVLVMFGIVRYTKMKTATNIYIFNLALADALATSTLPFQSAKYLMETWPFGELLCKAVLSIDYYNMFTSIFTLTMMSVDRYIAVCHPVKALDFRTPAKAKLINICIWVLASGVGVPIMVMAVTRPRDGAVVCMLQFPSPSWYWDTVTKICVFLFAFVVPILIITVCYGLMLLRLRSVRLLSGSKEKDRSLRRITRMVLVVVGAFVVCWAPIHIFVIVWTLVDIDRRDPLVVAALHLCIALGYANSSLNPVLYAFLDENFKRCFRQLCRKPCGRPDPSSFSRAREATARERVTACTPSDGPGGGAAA
- experimental_details: […]-GTPγS binding functional assay
pEC50: −log10 of the molar value.
quantity_kind: pEC50

Query (molecule): CC(C)(NC(=O)C1=C(O)[C@@H]2Oc3c(O)ccc4c3[C@@]23CCN(CC2CC2)[C@H](C4)[C@]3(O)C1)c1nc(-c2ccccc2)no1 ; field requested: pEC50
< 5.00

---

- tgt: rat recombinant κ-opioid receptor (Rattus norvegicus)
- Sequence (P34975 whole entry): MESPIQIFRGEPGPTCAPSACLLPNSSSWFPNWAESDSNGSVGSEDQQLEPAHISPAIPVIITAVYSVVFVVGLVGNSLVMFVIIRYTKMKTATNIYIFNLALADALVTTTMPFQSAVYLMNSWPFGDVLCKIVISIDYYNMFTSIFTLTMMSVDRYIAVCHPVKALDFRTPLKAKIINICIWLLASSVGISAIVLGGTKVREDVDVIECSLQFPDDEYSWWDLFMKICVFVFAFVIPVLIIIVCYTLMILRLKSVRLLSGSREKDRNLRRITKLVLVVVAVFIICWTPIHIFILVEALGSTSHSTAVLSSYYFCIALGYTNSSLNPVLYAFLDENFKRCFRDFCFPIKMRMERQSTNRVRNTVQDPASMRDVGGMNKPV
- experimental_details: […]-GTPγS binding functional assay
quantity_kind: IC50

Query (compound): CC(C)(NC(=O)C1=C(O)[C@@H]2Oc3c(O)ccc4c3[C@@]23CCN(CC2CC2)[C@H](C4)[C@]3(O)C1)c1nc(-c2ccccc2)no1 [naldemedine] ; field requested: IC50
12.2 nM

---

- tgt: recombinant human κ-opioid receptor (Homo sapiens)
- experimental_details: […]-GTPγS binding functional assay
pEC50: −log10 of the molar value.
quantity_kind: pEC50

Query (compound): CC(C)(NC(=O)C1=C(O)[C@@H]2Oc3c(O)ccc4c3[C@@]23CCN(CC2CC2)[C@H](C4)[C@]3(O)C1)c1nc(-c2ccccc2)no1 ; field requested: pEC50
< 5.00
